Experiment: qHTS of pediatric cancer cell lines to identify multiple opportunities for drug repurposing: Confirmatory screen for LAN-5 cells (AID 1347113); note: nearly all actives have a fitted effect of over 65% in size; note: potency is the fitted concentration of half-maximal effect
Settings: LAN-5 neuroblastoma cell viability; series mostly up to 45.9 µM
Inconclusive results are not listed. Calls of active or inactive are those of the source. Calls come from the whole dose curve; as a rule, active = well fitted cell-killing curve with a large enough effect; inconclusive = small, poorly fitted or top-dose-only effect, or effect the other way; inactive = no such curve, though single readings can be large or run the other way.
value type: Potency

These solved cases illustrate the format of a correct answer.
compound: CC(C)CN(C[C@H](O)[C@H](Cc1ccccc1)NC(=O)O[C@H]1CCOC1)S(=O)(=O)c1ccc(N)cc1
Potency: inactive

compound: CCC[C@H](N[C@@H](C)C(=O)N1[C@@H]2CCCC[C@H]2C[C@H]1C(=O)O)C(=O)OCC
Potency: inactive

compound: C[C@@H]1[C@H](O)[C@@H](C)C=CC=CC=CC=CC=CC=CC=C[C@H](O[C@@H]2O[C@H](C)[C@H](O)[C@H](N)[C@@H]2O)C[C@@H]2O[C@](O)(C[C@@H](O)C[C@@H](O)[C@H](O)CC[C@@H](O)C[C@@H](O)CC(=O)O[C@H]1C)C[C@H](O)[C@@H]2C(=O)O
Potency: inactive

compound: CC1(C)OC2CC3C4CC(F)C5=CC(=O)C=CC5(C)C4C(O)CC3(C)[C@]2(C(=O)CO)O1 (stereo partly drawn)
Potency: inactive

compound: CC[C@]1(O)C[C@H]2CN(CCC3=c4ccccc4=N[C]3[C@@](C(=O)OC)(c3cc4c(cc3OC)N(C)[C@H]3[C@@](O)(C(N)=O)[C@H](O)[C@]5(CC)C=CCN6CC[C@]43[C@@H]65)C2)C1
Potency: 0.147 µM (active)

Indicate its recorded Potency; the compound in question is CC1(C)CC(=O)c2c(C(F)(F)F)nn(-c3ccc(C(N)=O)c(NC4CCC(O)CC4)c3)c2C1 (stereo not drawn)
0.185 µM (active)

Complete the entry with Potency for N#CC(=C1Nc2ccccc2S1)c1ccnc(OCc2ccc(CN3CCOCC3)cc2)n1
inactive

For the compound C[C@@H]1O[C@@H](O[C@H]2CC[C@@]3(C)[C@H](CC[C@@H]4[C@H]3C[C@@H](O)[C@]3(C)[C@@H](C5=CC(=O)OC5)CC[C@]43O)C2)C[C@H](O)[C@@H]1O[C@H]1C[C@H](O)[C@H](O[C@H]2C[C@H](O)[C@@H](O)[C@@H](C)O2)[C@H](C)O1 (stereo in doubt) , report Potency.
0.302 µM (active)

Consider the compound NC(N)=Nc1nc(CSCCC(N)=NS(N)(=O)=O)cs1 and give its recorded Potency.
inactive

Consider the compound CCC(C)SSc1ncc[nH]1 (stereo not drawn) and give its recorded Potency.
13.1 µM (active)

* * *

Experiment: Quantitative High-Throughput drug screen in 47 multiple myeloma cell lines against the NCATS MIPE library collection: Karpas25_ECACC cell viability assay (AID 1918968; note: nearly all actives have a fitted effect of over 35% in size)
Settings: Karpas25 myeloma viability, CellTiter-Glo ATP, 48 h; series mostly up to 45.8 µM
Results filed as inconclusive are left out. Calls of active or inactive are those of the source. The call rests on the fitted dose curve; in most records, active means well fitted cell-killing curve with a large enough effect; inconclusive means small, poorly fitted or top-dose-only effect, or effect the other way; inactive means no such curve, though single readings can be large or run the other way.
// one of y (active), n (inactive), no free text

Please review the entries below; each comes with its answer.
molecule: Cc1ccccc1-n1c(Cn2nc(-c3cccc(O)c3)c3c(N)ncnc32)nc2cccc(C)c2c1=O
discrete label: y
//
molecule: Cc1cnc(CNC(=O)c2c(=O)c3ccc(N4CCCN(C)CC4)nc3n3c2sc2ccccc23)cn1
discrete label: n
//
molecule: COc1cc2nccc(Oc3ccc(NC(=O)Nc4cc(C)on4)c(Cl)c3)c2cc1OC
discrete label: y

Field: outcome | Entry: CS(=O)(=O)c1ccc(C2=C(c3ccccc3)C(=O)OC2)cc1
n

I would be grateful if you could indicate the recorded call for Cc1cc(C(C)Nc2ccccc2)c2nc(N3CCOCC3)cc(=O)n2c1 (centres undefined) .
y

Would you mind telling me which call this test gave Cc1cc2nc3c(=O)[nH]c(=O)nc-3n(CC(O)C(O)C(O)CO)c2cc1C (centres undefined) ?
n

Which result was noted for this molecule in the test: CN(C)c1nc(Cc2ccc(NC(=O)c3ccc(C(F)(F)F)cc3)cc2)nc(N(C)C)c1CC(=O)O
y

GET /call?item= CC[C@@H]([C@H](C)O)n1ncn(-c2ccc(N3CCN(c4ccc(OCC5CO[C@@](Cn6cncn6)(c6ccc(F)cc6F)C5)cc4)CC3)cc2)c1=O (some centres undefined) returns the recorded outcome of this test.
y

Please indicate how the test categorized Cc1ccc(NC(=O)c2ccc(CN3CCN(C)CC3)cc2)cc1Nc1nc(-c2cccnc2)cs1 .
y

Origin of measurements: PubChem BioAssay (NCATS)
